Sourced from patent US20240241135A1

# OD value per record follows
Target: T1, recombinant human regenerating islet-derived protein 1α (REG1A) (human, UniProt P05451 23-166, limits assumed)
T1 construct: also called recombinant human REG1A; recombinant REG1A
T1 sequence (looked up): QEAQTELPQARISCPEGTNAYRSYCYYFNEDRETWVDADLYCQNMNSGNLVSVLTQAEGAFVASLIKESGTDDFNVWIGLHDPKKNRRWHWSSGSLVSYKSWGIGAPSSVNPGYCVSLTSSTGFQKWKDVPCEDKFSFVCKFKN
Assay: sandwich ELISA; capture 4H8F1; REG1A 3.70 ng/mL

binder: antibody 4H8F1 (antibody, V domains shown, Mouse monoclonal from hybridoma, stated mouse IgG1/Kappa; also called 4H8F1-biotin; Antibody 1) VH: QVTLKESGPGILQPSQTLSLTCSFSGFSLSTSGMSVGWIRQPSGKGLEWLAHIWWNDDKFYNPALKSRLTISKDTSKNQIFLKIASVVTADSATYYCARIEEGWFAYWGQGTLVTVST VL: SIVMTQTPKFLLVSVGDRVTITCKASQTMSNDVAWYQQKPGQSPKLLIYYASNRYTGVPDRFTGSGYGTDFTFTISTVQAEDLAVYFCQQDYSSPLTFGAGTKLELKR
OD value [OD]: 0.079

binder: antibody 11D11B11 (antibody, mouse IgG2a, kappa, V domains shown, Mouse monoclonal from hybridoma, stated mouse IgG1/Kappa; Used unlabelled as capture and biotin-labelled as detection antibody; also called 11D11B11-biotin) VH: DVKLVESGGGLVKPGGSLKLSCAASGFTFSSFSMSWFRQTPDKRLEWVATISSGGSSTYYPDSVKGRFTISRDNAKNTLYLQMTSLKSEDTAIFYCRGGYYGNYDPLDYWGQGTSVTVSA VL: DIVMIQSQKFMSTSVGDRVSITCTASHNVDSNVAWYQQKPGQSPQALIYSASYRYSGVPDRFTGSGSGTDFTLTINNVQSEDLAEYFCQQYNSYPLTFGGGTRLEIKR
OD value [OD]: 3.74

binder: antibody 12F12A10 (antibody, V domains shown, Mouse monoclonal from hybridoma, stated mouse IgG1/Kappa; also called 12F12A10-biotin; Antibody 2) VH: QVQLQQSATELARPGASVKMSCKASGYTFTSYMMHWVKQRPGQGLEWIGYINPSSGYTDYNQKFKDKTTLTADKSSSTAYMQLSSLTSEDSAVYYCARYRYPHYFDYWGQGTTLTVSS VL: QIVLTQSPAIMSASPGEKVTMTCSASSSVSYIHWYQQKSGTSPKRWIYDTSKLASGVPARFSGSGSGTSYSLTISSMEAEDAAIYYCQQWSSNPPTFGAGTKLELKR
OD value [OD]: 3.84
